Experiment: Drug excretion in dog feces assessed as unchanged drug level
Assay type: ADME, tissue-based, Canis lupus familiaris
Details: read-out: Drug excretion
property: dose excreted (%)
Numbers only, in %.

Form: compound = `CCN1c2ncc(CCOc3cc[n+]([O-])c4ccccc34)cc2C(=O)N(C)c2cccnc21` ; dose excreted = 0

###

Test: Drug excretion in rat feces assessed as unchanged drug level
Format: ADME, tissue-based
Settings: read-out: Drug excretion
property: dose excreted (%)
One number for each entry, in %.

Given item CCN1c2ncc(CCOc3cc[n+]([O-])c4ccccc34)cc2C(=O)N(C)c2cccnc21 [BILR 355] , the value recorded as its dose excreted is 0

Attribution: ChEMBL document CHEMBL3525945
